src = patent US20230301968A1

Test system: CYP1A2
Test: Stability in human cryopreserved hepatocytes with or without CYP1A2 inhibitors (assays 1 to 3)
Settings: human, hepatocytes, CLint, assay 3, mexiletine 10 µM
Experimental: In each assay, the amount of test compound remaining at each time point was analysed by LC-MS/MS. The final incubation volume was 500 µL. […] A positive control compound, ethoxycoumarin, for CYP1A2 (as CYP1A2 substrate) was included. […] From a plot of In peak area ratio (compound peak area/internal standard peak area) against time, the gradient of the line was determined. Subsequently, half-life (t½) and intrinsic clearance (CLint) were calculated using the equations below: […]
Endpoint Name: hepatocyte CLint at 1 µM (µL/min/1e6 cells)
Respond numerically; units are µL/min/1e6 cells and should not be typed.

Req: Would you kindly share the measured hepatocyte CLint at 1 µM for COC(=O)Nc1nc2cc(C(=O)c3ccc(F)cc3)ccc2[nH]1 ?
Resp: 0.861

* * *

Tested on: CYP1A2
Assay: Metabolic stability in human liver microsomes with or without CYP1A2 inhibitor furafylline
Settings: human, microsomes, pH 7.4, t½, 1 µM substrate, plus 30 µM furafylline
Protocol: The amount of test compound remaining at each time point was analysed by LC-MS/MS. An incubation in the absence of NADPH was also performed to assess non-CYP mediated stability. […] From a plot of In peak area ratio (compound peak area/internal standard peak area) against time, the gradient of the line was determined. Subsequently, half-life and intrinsic clearance were calculated using the equations below: […]
Endpoint Name: half-life at 1 µM (h)
Number in h, nothing else.

Req: Sample COC(=O)Nc1nc2cc(C(=O)c3ccc(F)cc3)ccc2[nH]1 — what was its half-life at 1 µM?
Resp: 4.28

* * *

System: CYP1A2
Assay: Stability in human cryopreserved hepatocytes with or without CYP1A2 inhibitors (assays 1 to 3)
Details: human, hepatocytes, CLint, assay 2, fluvoxamine 10 µM
Endpoint Name: hepatocyte CLint at 1 µM (µL/min/1e6 cells)
Only the number, expressed in µL/min/1e6 cells, is required.

Req: Form field: reported hepatocyte CLint at 1 µM of COC(=O)Nc1nc2cc(C(=O)c3ccc(F)cc3)ccc2[nH]1
Resp: 3.95

* * *

Test: Metabolic stability in human liver microsomes with or without CYP1A2 inhibitor furafylline
Details: human, microsomes, pH 7.4, CLint, 1 µM substrate, no inhibitor
Endpoint Name: microsomal CLint at 1 µM
Write the numeric value and append its unit.

Req: # microsomal CLint at 1 µM lookup, item COC(=O)Nc1nc2cc(C(=O)c3ccc(F)cc3)ccc2[nH]1
Resp: 50.3 µL/min/mg

* * *

Test system: CYP1A2
Experiment: Stability in human cryopreserved hepatocytes with or without CYP1A2 inhibitors (assays 1 to 3)
Conditions: human, hepatocytes, CLint, assay 3, cimetidine 10 µM
Endpoint Name: hepatocyte CLint at 1 µM (µL/min/1e6 cells)
Numbers only; they are read as µL/min/1e6 cells.

Req: Entry COC(=O)Nc1nc2cc(C(=O)c3ccc(F)cc3)ccc2[nH]1 : reported hepatocyte CLint at 1 µM = ?
Resp: 5.43

* * *

Test: Stability in human cryopreserved hepatocytes with or without CYP1A2 inhibitors (assays 1 to 3)
Details: human, hepatocytes, CLint, assay 3, no inhibitor
Endpoint Name: hepatocyte CLint at 1 µM (µL/min/1e6 cells)
A number alone suffices; assume µL/min/1e6 cells.

Req: Recorded hepatocyte CLint at 1 µM for COC(=O)Nc1nc2cc(C(=O)c3ccc(F)cc3)ccc2[nH]1 [Flubendazole] , please?
Resp: 16.7

* * *

Experiment: Stability in human cryopreserved hepatocytes with or without CYP1A2 inhibitors (assays 1 to 3)
Conditions: human, hepatocytes, CLint, assay 2, no inhibitor
Endpoint Name: hepatocyte CLint at 1 µM (µL/min/1e6 cells)
Give the value in µL/min/1e6 cells but do not write µL/min/1e6 cells after it.

Req: Item under review: COC(=O)Nc1nc2cc(C(=O)c3ccc(F)cc3)ccc2[nH]1 . Reported hepatocyte CLint at 1 µM?
Resp: 8.62

* * *

Tested on: CYP1A2
Assay: Stability in human cryopreserved hepatocytes with or without CYP1A2 inhibitors (assays 1 to 3)
Details: human, hepatocytes, t½, assay 3, cimetidine 10 µM
Endpoint Name: half-life at 1 µM (h)
Give a bare numeral; the unit h is implied.

Req: // returns reported half-life at 1 µM for input COC(=O)Nc1nc2cc(C(=O)c3ccc(F)cc3)ccc2[nH]1
Resp: 4.25

* * *

Experiment: Metabolic stability in human liver microsomes with or without CYP1A2 inhibitor furafylline
Details: human, microsomes, pH 7.4, t½, 1 µM substrate, no inhibitor
Endpoint Name: half-life at 1 µM
Give the figure together with its unit, number first.

Req: Please report the recorded half-life at 1 µM for COC(=O)Nc1nc2cc(C(=O)c3ccc(F)cc3)ccc2[nH]1 .
Resp: 27.6 min

* * *

System: CYP1A2
Experiment: Stability in human cryopreserved hepatocytes with or without CYP1A2 inhibitors (assays 1 to 3)
Conditions: human, hepatocytes, t½, assay 2, furafylline 1 µM
Endpoint Name: half-life at 1 µM (h)
I only need the number, in h, no unit after it.

Req: // map COC(=O)Nc1nc2cc(C(=O)c3ccc(F)cc3)ccc2[nH]1 to recorded half-life at 1 µM (system: CYP1A2)
Resp: 11.3

* * *

Assay: in vitro
Details: human, hepatocytes, t½
Endpoint Name: half-life at 1 µM (min)
Entry rule: numbers only, all in min.

O=c1ccc2ccc(O)cc2o1    10.2

Consider the record given below.
Req: Using the record for CCOc1ccc2ccc(=O)oc2c1 , report its half-life at 1 µM.
Resp: 54.5

* * *

Tested on: CYP1A2
Assay: Stability in human cryopreserved hepatocytes with or without CYP1A2 inhibitors (assays 1 to 3)
Conditions: human, hepatocytes, CLint, assay 3, cimetidine 300 µM
Endpoint Name: hepatocyte CLint at 1 µM (µL/min/1e6 cells)
Give the value, in units of µL/min/1e6 cells, as a plain number.

Req: Look up hepatocyte CLint at 1 µM for this molecule: COC(=O)Nc1nc2cc(C(=O)c3ccc(F)cc3)ccc2[nH]1
Resp: 9.19

* * *

Test system: CYP1A2
Assay: Metabolic stability in human liver microsomes with or without CYP1A2 inhibitor furafylline
Conditions: human, microsomes, pH 7.4, half-life, 1 µM flubendazole, 10 µM furafylline
Procedure: The amount of test compound remaining at each time point was analysed by LC-MS/MS. An incubation in the absence of NADPH was also performed to assess non-CYP mediated stability. […] From a plot of In peak area ratio (compound peak area/internal standard peak area) against time, the gradient of the line was determined. Subsequently, half-life and intrinsic clearance were calculated using the equations below: […]
Endpoint Name: half-life at 1 µM (min)
Record the value in min, omitting the unit from your answer.

Req: Using the record for COC(=O)Nc1nc2cc(C(=O)c3ccc(F)cc3)ccc2[nH]1 , report its half-life at 1 µM.
Resp: 396

* * *

Molecular target: CYP2B6 (Homo sapiens)
Construct: purchased
Sequence (P20813 whole entry): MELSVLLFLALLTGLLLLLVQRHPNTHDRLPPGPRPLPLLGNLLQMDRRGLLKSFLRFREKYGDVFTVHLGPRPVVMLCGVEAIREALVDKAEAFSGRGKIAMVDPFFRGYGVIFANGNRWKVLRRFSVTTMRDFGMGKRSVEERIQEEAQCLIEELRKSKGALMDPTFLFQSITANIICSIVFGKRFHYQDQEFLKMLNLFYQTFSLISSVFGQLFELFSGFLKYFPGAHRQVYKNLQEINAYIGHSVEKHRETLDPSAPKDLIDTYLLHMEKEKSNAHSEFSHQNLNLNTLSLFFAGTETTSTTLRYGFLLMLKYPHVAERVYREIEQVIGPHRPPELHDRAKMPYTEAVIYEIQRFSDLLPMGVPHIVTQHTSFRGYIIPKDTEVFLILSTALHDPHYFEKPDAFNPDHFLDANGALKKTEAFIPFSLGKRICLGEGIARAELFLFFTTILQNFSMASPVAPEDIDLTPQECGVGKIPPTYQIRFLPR
Test: Cytochrome P450 reaction phenotyping, recombinant CYP2B6
Assay type: in vitro ADME
Settings: human, pH 7.4; 1 µM substrate, recombinant CYP2B6, NADPH; minus value = not metabolised; read-out: t½
Endpoint Name: half-life at 1 µM

Req: // half-life at 1 µM lookup, key: COC(=O)Nc1nc2cc(C(=O)c3ccc(F)cc3)ccc2[nH]1 [Flubendazole]
Resp: ≥ 2.45 h

* * *

Experiment: Metabolic stability in human liver microsomes with or without CYP1A2 inhibitor furafylline
Settings: human, microsomes, pH 7.4, intrinsic clearance (CLint), pre-screen assay, absence of inhibitor
Endpoint Name: microsomal CLint at 1 µM (µL/min/mg)
Please reply with the bare figure in µL/min/mg and do not write the unit itself.

Req: Look at this compound and give its reported microsomal CLint at 1 µM. COC(=O)Nc1nc2cc(C(=O)c3ccc(F)cc3)ccc2[nH]1
Resp: 43.7

* * *

System: CYP1A2
Experiment: Metabolic stability in human liver microsomes with or without CYP1A2 inhibitor furafylline
Conditions: human, microsomes, pH 7.4, CLint, 1 µM substrate, plus 30 µM furafylline
Endpoint Name: microsomal CLint at 1 µM
Show the value, then the unit it is measured in.

Req: Quick check: microsomal CLint at 1 µM of COC(=O)Nc1nc2cc(C(=O)c3ccc(F)cc3)ccc2[nH]1 ?
Resp: 5.39 µL/min/mg

* * *

System: CYP1A2
Assay: Metabolic stability in human liver microsomes with or without CYP1A2 inhibitor furafylline
Conditions: human, microsomes, pH 7.4, t½, 1 µM substrate, plus 3 µM furafylline
Endpoint Name: half-life at 1 µM (h)
The figure you give is taken to be in h; do not add the unit.

Req: # value lookup — system CYP1A2, readout half-life at 1 µM, item COC(=O)Nc1nc2cc(C(=O)c3ccc(F)cc3)ccc2[nH]1
Resp: 1.58

* * *

System: CYP1A2
Assay: Metabolic stability in human liver microsomes with or without CYP1A2 inhibitor furafylline
Conditions: human, microsomes, pH 7.4, CLint, 1 µM substrate, plus 10 µM furafylline
Protocol: The amount of test compound remaining at each time point was analysed by LC-MS/MS. An incubation in the absence of NADPH was also performed to assess non-CYP mediated stability. […] From a plot of In peak area ratio (compound peak area/internal standard peak area) against time, the gradient of the line was determined. Subsequently, half-life and intrinsic clearance were calculated using the equations below: […]
Endpoint Name: microsomal CLint at 1 µM
// unit must come after the numeric part

Req: Which microsomal CLint at 1 µM reading was recorded for the compound COC(=O)Nc1nc2cc(C(=O)c3ccc(F)cc3)ccc2[nH]1 ?
Resp: 3.52 µL/min/mg
